Test system: K-562 leukemia
procedure-details: NCI tumour cell line growth inhibition, 48 h; in the data active = GI50 below about 0.43 µM; inactive = the rest
Possible outcomes: TRUE for active, FALSE for inactive

>>> class_assignment("CC(=O)c1cccc(NC(=O)c2ccc(NC3=C(Cl)C(=O)N(Cc4ccccc4)C3=O)cc2)c1")
"FALSE"
>>> class_assignment("O=C(COc1ccc(-c2nc3cc(Cl)c(Cl)cc3[nH]2)cc1)N=Nc1c(O)[nH]c2ccccc12")
"FALSE"
>>> class_assignment("C[C@]12CC[C@@H]3c4ccc(O)cc4CC[C@H]3[C@@H]1CC[C@@H]2NS(=O)(=O)c1ccc2ccccc2c1")
"FALSE"
>>> class_assignment("CNCCCn1c2c(c3ccc(F)cc3c1=O)C(=O)c1cc(OC)cnc1-2")
"TRUE"

---

Recorded TGI by entry
Tested on: DU-145 prostate
procedure-details: NCI tumour cell line growth inhibition, 48 h
quantity: TGI (µM)

>>> experimental_result("Cc1c(-c2ccc(O)c(O)c2)oc(=O)c2c(O)cccc12")
47.2
>>> experimental_result("CC(=O)c1cccc(NC(=O)c2ccc(NC3=C(Cl)C(=O)N(Cc4ccccc4)C3=O)cc2)c1")
34.2
>>> experimental_result("C[C@@](O)(/C=C/[C@H]1CC=CC(=O)O1)[C@@H](C[C@@H](O)\\C=C/C=C\\C=C\\CO)OP(=O)(O)O")
32.5
>>> experimental_result("Nc1cc2nc3ccccc3oc-2cc1=O")
2.98

---

System: SK-MEL-28 melanoma
procedure-details: NCI tumour cell line growth inhibition, 48 h
quantity: TGI (µM)

>>> experimental_result("COC(=O)C1C(O)C(C)C(O)OC1C(C)C(O)C(C)/C=C\\C=C(/C)C(=O)Nc1c(C)c(OC(C)=O)c2c(c1O)C(=O)C(C)=C1OCOC(/C(C)=C/C(C)=O)=C12 (stereo not given)")
4.96
>>> experimental_result("CCCCN1CCN(c2ccc3nc(-c4ccc5nc(-c6ccc(OCC)c(OCC)c6)[nH]c5c4)[nH]c3c2)CC1")
2.22
>>> experimental_result("COc1ccc2[nH]c(O)c(/C=c3/ccc4c(c3)N=C(c3ccc(F)cc3)N=4)c2c1")
28.8

---

Tested on: OVCAR-4 ovarian
procedure-details: NCI tumour cell line growth inhibition, 48 h
Property: TGI; scope: individual molecules
quantity: TGI

>>> experimental_result("CN(C)Cc1cc(C(=O)/C=C/c2ccc(F)cc2)cc(CN(C)C)c1O")
"> 100 µM"
>>> experimental_result("COc1cc(Nc2nc3ccccc3nc2C(C)C)cc(OC)c1OC")
"> 100 µM"
>>> experimental_result("COc1ccc(-c2cc(-c3ccccc3)nc3c2CC(=O)Nc2ccccc2-3)cc1OC")
"> 100 µM"
>>> experimental_result("NC(C(=O)OC(=O)c1ccccc1)C(=O)OC(=O)c1ccccc1")
"> 100 µM"
>>> experimental_result("Cc1ccc2c(CC(=O)O)cc(=O)oc2c1")
"> 100 µM"
>>> experimental_result("CCN(CC)c1ccc(/C=C/C=C(/C#N)C(N)=S)cc1")
"> 100 µM"

---

System: CAKI-1 renal
procedure-details: NCI tumour cell line growth inhibition, 48 h
quantity: GI50

>>> experimental_result("Oc1ccccc1C=Nc1ccccc1N=Cc1ccccc1O.[Cu+2]")
"2.74 µM"
>>> experimental_result("C[C@]12CCc3sc(-c4cccc(F)c4)nc3C1=CC[C@@H]1[C@@H]2CC[C@]2(C)C(=O)CC[C@@H]12")
"1.87 µM"
>>> experimental_result("Cc1cc(O)cc(C)c1/C=C/c1cncc(C(=O)OC(C)(C)C)c1")
"12.3 µM"
>>> experimental_result("COc1cc(NC(C)CCCN)c2ncccc2c1Sc1ccc(Cl)cc1 (stereo not drawn)")
"3.13 µM"
>>> experimental_result("CC1(C)N=C(N)N=C(N)N1c1ccc(Cl)c(Cl)c1")
"12.5 µM"
>>> experimental_result("CC12CCC(O)CC1=CCC1C2CCC2(C)C(c3cccnc3)=CCC12 (stereo not drawn)")
"> 100 µM"
>>> experimental_result("CSc1nc(N)c2c(n1)NC(c1ccccc1)C1CCc3ccccc3C1=N2 (stereo not drawn)")
"31.3 µM"
>>> experimental_result("CNC(=O)c1cc2c(Oc3ccc(NC(=S)NC(=O)Cc4ccccc4)cc3F)ccnc2cc1OC")
"4.23 µM"

---

Test system: SF-295 CNS
procedure-details: NCI tumour cell line growth inhibition, 48 h
TGI reference
quantity: TGI

>>> experimental_result("CC(C)(O)CCc1ccc(O)c2c(=O)c3c(O)c4c(cc3oc12)O[C@H]1OC=C[C@@]41O")
"25.3 µM"
>>> experimental_result("CC/C(CC(=O)CCC(=O)Nc1ccc(C)c(C)c1)=N\\NC(=O)C(N)=O")
"> 100 µM"
>>> experimental_result("Nc1ncnc2nn(C3OC(CO)C(O)C3O)nc12 (stereo unspecified)")
"> 89.3 µM"
>>> experimental_result("Cn1c(C(C)(C)OC(=O)Oc2ccccc2)cnc1[N+](=O)[O-]")
"> 100 µM"
>>> experimental_result("Cc1cc2c(=O)cc(-c3ccc(F)cc3)oc2c(C(=O)O)c1C")
"> 100 µM"
>>> experimental_result("CN1C(=O)C(=CN(C)c2ccccc2)C(=O)N(C)C1=O")
"> 100 µM"
>>> experimental_result("O=S(=O)(/N=C(\\NO)Nc1ccc(Cl)cc1)C1CC=C(c2ccon2)S1 (stereo unspecified)")
"> 100 µM"
>>> experimental_result("Cc1cn2c(/C=N/N=C(N)N)c(-c3ccsc3)nc2s1")
"22.9 µM"
>>> experimental_result("CC(=O)OC(=C(C#N)C#N)c1nccnc1C(C)=O")
"> 20 µM"
>>> experimental_result("Oc1c2c(c(O)c3ccccc13)C1(N=N2)c2ccccc2Oc2ccccc21")
"33.3 µM"
>>> experimental_result("COc1ccc(-c2nc3cc(C(F)(F)F)ccc3n2CC2CCCN3CCCCC23)cc1 (stereo unspecified)")
"36.6 µM"

---

List of TGI values.
Test system: SF-268 CNS
procedure-details: NCI tumour cell line growth inhibition, 48 h
quantity: TGI

>>> experimental_result("Brc1ccc(C2SCc3nc4ccccc4n32)cc1 (stereo not given)")
"32.9 µM"
>>> experimental_result("CC#CCCCC1(C)CCCNC1=S (stereo not given)")
"> 10 µM"
>>> experimental_result("CCCCN1CCN(c2ccc3nc(-c4ccc5nc(-c6ccc(OCC)c(OCC)c6)[nH]c5c4)[nH]c3c2)CC1")
"22 µM"
>>> experimental_result("O=C1CCCC[C@H]1C(O)CC1CC(=O)N(c2ccccc2)C(=O)C1 (stereo not given in full)")
"> 100 µM"
>>> experimental_result("Cc1cc(NS(=O)(=O)c2ccc(NC(=O)COC(=O)c3cccc4c(=O)c5ccccc5[nH]c34)cc2)no1")
"> 100 µM"
>>> experimental_result("CC(=O)OC1[C@H](n2ccnc2)C[C@H]2[C@@H]3CC=C4CC(N5CCCC5)CC[C@]4(C)[C@H]3CC[C@]12C (stereo not given in full)")
"> 100 µM"
>>> experimental_result("COCn1c(C)c(C)c2c(=O)oc(C)nc21")
"> 100 µM"
>>> experimental_result("Cc1cc2c(=O)[nH]c(N)nc2nc1C")
"> 100 µM"
>>> experimental_result("COc1cc(NC(C)CCCN)c2ncccc2c1Sc1ccc(Cl)cc1 (stereo not given)")
"6.61 µM"
>>> experimental_result("COC[C@@H](N=CN1CCc2cc(OC)c(OC)cc2C1)C(C)(C)C")
"> 100 µM"
>>> experimental_result("COc1ccc2c(c1)CCN1C3=C(CCC3)C(=O)C[C@@H]21")
"> 100 µM"
>>> experimental_result("CN=C(NC)N(C)c1nc(=[N+](C)C)ss1")
"> 100 µM"
>>> experimental_result("CNC(=O)c1cc2c(Oc3ccc(NC(=S)NC(=O)Cc4ccccc4)cc3F)ccnc2cc1OC")
"> 100 µM"
>>> experimental_result("Oc1c2c(c(O)c3ccccc13)C1(N=N2)c2ccccc2Oc2ccccc21")
"25.5 µM"
>>> experimental_result("Cn1c(=O)c2nc(NCCO)cnc2n(C)c1=O")
"> 100 µM"
>>> experimental_result("CSc1nc(N)c2c(n1)NC(c1ccccc1)C1CCc3ccccc3C1=N2 (stereo not given)")
"> 100 µM"
>>> experimental_result("Cc1nnc([C@@]2(C)CC[C@H]3[C@@H](CCC4=CC(=O)CC[C@@]43C)[C@@H]2CC#N)o1")
"> 100 µM"
>>> experimental_result("Cc1cc2c(=O)cc(-c3ccc(F)cc3)oc2c(C(=O)O)c1C")
"> 100 µM"
>>> experimental_result("COc1ccc(C(=O)OC2C(OC3C(O)COC(O[C@H]4C[C@H]5[C@@H]6CC=C7C[C@@H](O)CC[C@]7(C)[C@H]6CC[C@]5(C)[C@H]4[C@H](C)C(=O)CCC(C)C)C3OC(C)=O)OCC(O)C2O)cc1 (stereo not given in full)")
"1.46 µM"
>>> experimental_result("Cc1ccc(C)c2c(N=Nc3ccccc3[N+](=O)[O-])c(O)[nH]c12")
"> 100 µM"

The reported measurements were obtained from PubChem BioAssay (NCI).
